study_target: CHA-induced renal vasoconstriction (A1 subclass of receptors) (Rattus norvegicus, UniProt P25099)
Construct: isolated rat kidneys
Sequence (P25099 whole entry): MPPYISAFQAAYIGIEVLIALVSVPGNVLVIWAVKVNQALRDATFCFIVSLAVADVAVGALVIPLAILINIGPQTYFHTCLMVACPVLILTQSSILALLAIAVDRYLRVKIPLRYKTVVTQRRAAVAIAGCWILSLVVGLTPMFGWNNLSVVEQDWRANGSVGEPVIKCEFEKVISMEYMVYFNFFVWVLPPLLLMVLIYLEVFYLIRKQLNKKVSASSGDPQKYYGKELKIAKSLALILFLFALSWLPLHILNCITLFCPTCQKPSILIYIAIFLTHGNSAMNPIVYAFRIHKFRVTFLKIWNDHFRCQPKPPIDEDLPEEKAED
protocol_description: CHA-induced renal vasoconstriction in isolated perfused rat kidneys
experimental_context: CHA-induced renal vasoconstriction, isolated rat kidney; read-out: calculated inhibitory constant, Ki
quantity_name: Ki (nM)

>>> print(df.to_string())
                           substance_smiles  endpoint_result
0  CCCn1c(=O)c2[nH]c(-c3ccc(OCC(=O)NCCN)cc3)nc2n(CCC)c1=O               10

----------
study_target: A1 receptor (Rattus norvegicus, UniProt P25099)
Construct: rat cerebral cortex membranes; from tissue; host or cells: rat cerebral cortex membranes
protocol_description: inhibition of [3H]PIA binding to rat cerebral cortex membranes
experimental_context: read-out: Ki at central A1-receptors
pKi: −log10 of the molar value.
quantity_name: pKi

In [3]: df
Out[3]:
                                   molecule                              study_target  quantity_name  endpoint_result
0  CCCn1c(=O)c2nc(-c3ccc(OCC(=O)NCCN)cc3O)[nH]c2n(CCC)c1=O [2-hydroxyl analog of XAC]  A1 receptor (Rattus norvegicus, UniProt P25099)            pKi             8.64
